Entry source: patent US20030158199A1

Target: c-Met (Homo sapiens)
Construct: GST-cMet (aa956-1390); GST (N)
Sequence (P08581 956-1390): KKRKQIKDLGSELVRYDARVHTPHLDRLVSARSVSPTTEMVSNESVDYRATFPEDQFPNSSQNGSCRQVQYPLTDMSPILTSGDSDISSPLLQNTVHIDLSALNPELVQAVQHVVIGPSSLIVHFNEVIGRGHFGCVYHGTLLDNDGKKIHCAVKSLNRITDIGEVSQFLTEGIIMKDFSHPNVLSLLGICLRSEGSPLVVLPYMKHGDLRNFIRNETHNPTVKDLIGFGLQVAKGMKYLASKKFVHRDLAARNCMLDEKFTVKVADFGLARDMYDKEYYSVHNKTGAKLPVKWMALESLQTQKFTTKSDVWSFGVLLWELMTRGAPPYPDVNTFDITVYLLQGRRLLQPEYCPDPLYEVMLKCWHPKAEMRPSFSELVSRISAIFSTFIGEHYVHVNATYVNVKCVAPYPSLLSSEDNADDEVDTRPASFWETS
Experiment: RTK ELISA, recombinant kinase domain, c-Met
Conditions: GST-cMet (aa956-1390) expressed in baculovirus infected insect cells
pIC50: −log10 of the molar value. Where a name gives a salt, the structure may show the parent alone.
Quick reference for pIC50 among some molecules

// below: answered molecules
{"molecule": "O=C(O)c1ccc(Nc2nc(-c3ccc(N4CCCC4)cc3)cs2)cc1 [Number 20, Hydrobromide]", "result": "< 5.00"}
{"molecule": "Cc1nc(-c2ccc(N3CCCC3)cc2)cs1 [Number 21, Hydrobromide]", "result": "< 4.30"}

Record summary for c1cc(Nc2nc(-c3ccc(N4CCCC4)cc3)cs2)ccn1 [Number 15, Hydrobromide] : reported pIC50 = < 5.00

pIC50 in this record for FC(F)(F)c1cccc(Nc2nc(-c3ccc(N4CCCC4)cc3)cs2)c1 [Number 19, Hydrobromide] : < 4.30

In plain terms, CCN(CC)c1ccc(-c2csc(Nc3cccc(C(F)(F)F)c3)n2)cc1 [Number 32, Hydrobromide] has a documented pIC50 of < 4.30

Looking up CN(c1ccccc1)c1nc(-c2ccc(N3CCCC3)cc2)cs1 [Number 9, Hydrobromide] , I see its pIC50 listed as < 4.60

response.value for Nc1nc(-c2ccc(N3CCCC3)cc2)co1 [Number 6, Hydrobromide] (field: pIC50) = < 4.30

CCN(CC)c1ccc(-c2coc(N)n2)cc1 [Number 24, Hydrobromide] yielded pIC50 of < 4.30
